Recorded measurements of viability, T/C, one per entry
- Test system: 922993-354-T-J3-PDC complex spheroid viability;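 further: spheroids exposed to the agents for one week; 100% = DMSO vehicle control wells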
- method: Anticancer human tumor 922993-354-T-J3-PDC patient-derived endometrial carcinoma cell line growth inhibition [POLQ]
- measurementConditions: second compound 0.316 µM; first compound 0.0316 µM; stronger effect = lower value
Report the value in % with no unit label.

compound: COc1cccc2c1C(=O)c1c(O)c3c(c(O)c1C2=O)CC(O)(C(=O)CO)CC3OC1CC(N)C(O)C(C)O1 (stereo not drawn) + Cc1cccc(N(C)C(=O)C2C(O)CCN2c2nc(C)cc(C(F)(F)F)c2C#N)c1
assayedSystem: 922993-354-T-J3-PDC complex spheroid viability;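 further: spheroids exposed to the agents for one week; 100% = DMSO vehicle control wells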
viability, T/C (%): 103

compound: CC(C)n1c(=O)n(C)c2cnc3cc(F)c(-c4ccc(OCCCN5CCCCC5)nc4)cc3c21 + Nc1ccc(C#CCN(C(=O)Cc2ncc(C(F)(F)F)cc2C(F)(F)F)c2ccc(F)cc2)nn1
assayedSystem: 922993-354-T-J3-PDC complex spheroid viability;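 further: spheroids exposed to the agents for one week; 100% = DMSO vehicle control wells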
viability, T/C (%): 106

Switching to the query record.
Which measured viability, T/C value corresponds to O=C(Nc1ccc(O)c(NS(=O)(=O)c2ccc(F)cc2)c1)c1ccc(-c2ccccc2)cc1 + Nc1ccc(C#CCN(C(=O)Cc2ncc(C(F)(F)F)cc2C(F)(F)F)c2ccc(F)cc2)nn1 ?
100
